Ref: ChEMBL document CHEMBL1154436

- Experimental protocol: Chemical stability assessed as hydrolysis in phosphate buffer at pH 7.4
- Assay type: physicochemical
half-life reference
Measurement name: half-life (h)

CC(C)Cc1ccc(C(C)C(=O)NCCNC(=O)C(C)c2ccc(CC(C)C)cc2)cc1 (mixture of isomers)
1.16
CC(C)Cc1ccc(C(C)C(=O)N(CCN(Cc2ccccc2)C(=O)C(C)c2ccc(CC(C)C)cc2)Cc2ccccc2)cc1 (mixture of isomers)
1.38
